# experiment.description: chemical genetic growth profiling, strain panel (AID 1159580);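 further: tested at 20 µM; growth read once vehicle control cultures reached saturation at 30 °C; 1 = growth at the plate median or of vehicle wells; lower values mean less growth of the strain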
# measurement.context: S. cerevisiae deletion strains, growth OD, locus YNL307C, strain MCK1, stronger effect = lower value
The campaign covered roughly 5,500 compounds. About 2,000 (36%) were called active. About 18% were inconclusive and are not listed. The list shows a part of the results.
Just a reminder that ties go to -1: only normalized growth strictly below 1 counts as 1.

Lab note: normalized growth threshold 1. Does this compound come in strictly under it? CN1CCN(C(c2ccccc2)c2ccccc2)CC1
1

Strictly below 1: is that where normalized growth of CNC(=O)CSP(=S)(OC)OC sits?
-1

Regarding N#C/C(=C\c1ccc(O)cc1)C(=O)O , kindly confirm whether its normalized growth is beneath 1.
-1

Continuing:
For this compound, is normalized growth lower than 1? COC(=O)C[C@H]1C(C)(C)[C@@H](OC(C)=O)[C@@H]2CC3C4CC(=O)O[C@@H](c5ccoc5)[C@]4(C)CCC3[C@@]1(C)C2=O (some centres not stated)
-1

Threshold test, normalized growth < 1: CC(C)=CCC1=C(O)c2ccccc2C(=O)C1=O
1

Source listed as PubChem BioAssay AID1159580.
